- tested.on: Recombinant full-length human IDO1 (Homo sapiens (Human))
- method.notes: IDO1 enzymatic assay (IDO inhibitory activity)
- Format: biochemical
- condition.parameters: 2 nM enzyme, 5 μM L-tryptophan, pH6.5, 30 min pre-incubation, NFK quantified by LCMS; mean values if measured multiple times; read-out: hIDO activity (IC50 in nM)
endpoint: IC50 (nM)

For orientation, consider the following solved cases.
CC1CCCC(C(O)c2c(C3CC3)sc3cncn23)C1 (centres unmarked) [Example 27] ... 17.2
COCc1sc2cncn2c1C(O)C1CCCCC1 (racemic) [Example 157] ... 744

[a] OC(c1cccs1)c1c(Cl)sc2cncn12 (racemic) [Example 15]
[b] CCc1cccc(C(O)c2c(C3CC3)sc3cncn23)c1 (racemic) [Example 54]
[c] CC1(C)CCCC1C(O)c1c(C2CC2)sc2cncn12 (centres unmarked) [Example 84]
[d] OC(c1c(Cc2ccccc2)sc2cncn12)C1CCCCC1 (racemic) [Example 154]
[e] OC(CC1CCC1)c1c(C2CC2)sc2cncn12 (racemic) [Example 40]
(Q) Put the items in order so that reported IC50 rises from first to last. List the labels, following the order given in the request.
(A) e, c, b, a, d
(e: 44.9 nM, c: 74 nM, b: 120 nM, a: 333 nM, d: 7110 nM)

[A] CC1CCC(C(O)c2c(C3CC3)sc3cncn23)C1 (centres unmarked) [Example 30]
[B] O[C@@H](CC1CCCCC1)c1c(Cl)sc2cncn12 [Example 16a]
[C] Cc1sc2cncn2c1C(O)[C@H]1C[C@@H]1c1ccccc1 (single isomer, unassigned) [Example 168]
[D] Cc1sc2cncn2c1C(O)CC1CCCC1 (racemic) [Example 183]
[E] OC(CC1CCC(C(F)F)CC1)c1c(C2CC2)sc2cncn12 (racemic) [Example 138]
(Q) # desc sort on IC50 across 5 molecules Reply with the item labels sorted in the order that was asked for.
(A) D, C, B, E, A

----------
- tested.on: Recombinant full-length human IDO1 (Homo sapiens (Human), UniProt P14902)
- Sequence (P14902 whole entry): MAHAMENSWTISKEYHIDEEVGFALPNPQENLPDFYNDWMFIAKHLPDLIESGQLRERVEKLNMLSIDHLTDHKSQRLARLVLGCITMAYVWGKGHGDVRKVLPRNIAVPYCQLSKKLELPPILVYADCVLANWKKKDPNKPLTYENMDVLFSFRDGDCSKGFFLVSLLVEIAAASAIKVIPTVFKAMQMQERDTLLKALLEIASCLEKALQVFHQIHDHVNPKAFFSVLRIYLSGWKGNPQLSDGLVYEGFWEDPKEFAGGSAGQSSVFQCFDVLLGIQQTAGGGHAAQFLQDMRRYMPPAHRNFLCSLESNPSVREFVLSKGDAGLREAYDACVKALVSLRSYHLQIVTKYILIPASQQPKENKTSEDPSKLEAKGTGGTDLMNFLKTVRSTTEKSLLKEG
- method.notes: IDO1 enzymatic assay (IDO inhibitory activity)
- Format: biochemical
- condition.parameters: 2 nM enzyme, 5 μM L-tryptophan, pH6.5, 30 min pre-incubation, NFK quantified by LCMS; mean values if measured multiple times; read-out: hIDO activity (IC50 in nM)
- Method: 1) Testing Compounds for IDO Inhibitory Activity in an IDO1 Enzymatic Assay: Recombinant full-length human IDO1 with a N-terminal hexahistidine tag expressed in E. coli and purified to homogeneity is incubated at a final concentration of 2 nM in assay buffer consisting of 37.5 mM phosphate buffer at pH6.5 supplemented with 10 mM sodium L-ascorbate, 0.45 μM methylene blue, 50 U/ml catalase, 0.01% BSA, and 0.01% Tween 20 (protocol modified from Seegers et al, JBS 2014). […]
endpoint: IC50 (nM)

OC(c1c(-c2cccc(F)c2)sc2cncn12)C1CCCCC1 (racemic) ... 965
O[C@H](c1c(C2CCC2)sc2cncn12)C1CCCCC1 ... 39.7
CC1(C(O)c2c(C3CC3)sc3cncn23)CCCCCC1 (racemic) ... 32.1

[1] OC1CCC(CC(O)c2c(C3CC3)sc3cncn23)CC1 (racemic)
[2] OC(CC1CCCCC1)c1c(Br)sc2cncn12 (racemic)
[3] OC(c1c(C2CC2)sc2cncn12)C1CCCC1Cc1ccccc1 (stereo not shown)
[4] OC(c1c(C2CC(F)(F)C2)sc2cncn12)C1CCCCC1 (racemic)
[5] CCc1sc2cncn2c1[C@@H](O)C1CCCCC1 [Example 96a]
(Q) Write the entries in order, lowest recorded IC50 first. // format: requested-order list of labels
(A) 5, 1, 2, 3, 4

[I] CCc1sc2cncn2c1C(O)C1(C)CCCCC1 (racemic)
[II] O[C@H](c1c(C(F)(F)F)sc2cncn12)C1CCCCC1 [Example 63a]
[III] CC(CC(O)c1c(C2CC2)sc2cncn12)C1CCCCC1 (stereo not shown)
[IV] OC(c1c(C(F)(F)F)sc2cncn12)C1CCCC1 (racemic)
[V] OC(CC1CCCCC1)c1c(C2CC(F)(F)C2)sc2cncn12 (racemic)
(Q) Let's sort these by IC50, smallest first. Go ahead? Give your ranking as a list of the labels in the requested order.
(A) I, II, IV, III, V

----------
- tested.on: Recombinant human TDO comprising amino acids 19-407 (Homo sapiens (Human))
- Sequence (P48775 19-406 limits assumed): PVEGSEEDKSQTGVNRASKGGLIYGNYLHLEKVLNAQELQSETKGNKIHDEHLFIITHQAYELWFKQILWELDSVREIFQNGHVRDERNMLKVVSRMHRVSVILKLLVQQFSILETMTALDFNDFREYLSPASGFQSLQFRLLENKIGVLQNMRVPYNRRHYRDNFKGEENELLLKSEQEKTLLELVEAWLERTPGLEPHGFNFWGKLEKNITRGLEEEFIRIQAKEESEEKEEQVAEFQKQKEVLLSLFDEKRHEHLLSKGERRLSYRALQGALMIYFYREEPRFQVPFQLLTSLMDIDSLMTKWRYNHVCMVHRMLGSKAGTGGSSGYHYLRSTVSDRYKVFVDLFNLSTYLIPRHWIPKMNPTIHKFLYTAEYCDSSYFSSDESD
- method.notes: TDO2 enzymatic assay (TDO inhibitory activity)
- Assay type: biochemical
- condition.parameters: 15 nM enzyme, 200 μM L-tryptophan, pH7, 30 min pre-incubation, NFK quantified by LCMS; mean values if measured multiple times; read-out: hTDO activity (IC50 in nM)
endpoint: IC50 (nM)

OC(Cc1ccccc1)c1c(C2CC2)sc2cncn12 (racemic) [Example 59] ... 881
Cc1sc2cncn2c1C(O)CC1CCC(c2ccccc2)C1 (centres unmarked) [Example 107] ... 1890
CC1(C)CCC(C(O)c2c(C3CC3)sc3cncn23)CC1 (racemic) [Example 26] ... 387

[A] OC(c1c(C2CC2)sc2cncn12)C12CCC(c3ccccc3)(C1)C2 (racemic) [Example 190]
[B] CCc1ccc(C(O)c2c(C3CC3)sc3cncn23)cc1 (racemic) [Example 53]
(Q) Hi there, can you help? I need to know whether A or B has lower measured IC50. # answer = label of selected item
(A) A
(A: 891 nM, B: 1530 nM)

----------
- tested.on: Recombinant full-length human IDO1 (Homo sapiens (Human), UniProt P14902)
- method.notes: IDO1 enzymatic assay (IDO inhibitory activity)
- Type: biochemical
- condition.parameters: 2 nM enzyme, 5 μM L-tryptophan, pH6.5, 30 min pre-incubation, NFK quantified by LCMS; mean values if measured multiple times; read-out: hIDO activity (IC50 in nM)
endpoint: IC50 (nM)

Solved cases below.
CC1(C)CCCC(C(O)c2c(C3CC3)sc3cncn23)C1 (stereo not shown) [Example 69] ... 40
OC(c1c(C2(F)CC2)sc2cncn12)C1CCCCC1 (racemic) [Example 184] ... 115
OC(c1cn(C2CCC2)nn1)c1c(C2CC2)sc2cncn12 (racemic) [Example 196] ... 183

[1] OC(c1c([C@@H]2C[C@@H]2F)sc2cncn12)C1CCCCC1 (relative stereo) [Example 186]
[2] OC(c1c(C2CCCC2)sc2cncn12)C1CCCCC1 (racemic) [Example 9]
(Q) Between item 1 and item 2 , which reported IC50 is smaller? Use the label to indicate which entry you chose.
(A) 1

[a] OC1CCC(C(O)c2c(C3CC3)sc3cncn23)CC1 (racemic) [Example 151]
[b] OC(CC1CCCCC1)c1c(C2CCCC2)sc2cncn12 (racemic) [Example 10]
[c] OC(CC1CCCCC1)c1c(C(F)(F)F)sc2cncn12 (racemic) [Example 64]
[d] OC(c1c(Cl)sc2cncn12)C1CC1 (racemic) [Example 19]
(Q) Order the 4 compounds from highest to lowest IC50. Please list the labels according to the requested order.
(A) d, b, a, c
(d: 1040 nM, b: 384 nM, a: 102 nM, c: 69 nM)

----------
- tested.on: Recombinant full-length human IDO1 (Homo sapiens (Human))
- method.notes: IDO1 enzymatic assay (IDO inhibitory activity)
- Assay type: biochemical
- condition.parameters: 2 nM enzyme, 5 μM L-tryptophan, pH6.5, 30 min pre-incubation, NFK quantified by LCMS; mean values if measured multiple times; read-out: hIDO activity (IC50 in nM)
endpoint: IC50 (nM)

OC(c1c(-c2ccccc2F)sc2cncn12)C1CCCCC1 (racemic) ... 441
CC(C)Cc1sc2cncn2c1C(O)C1CCCCC1 (racemic) ... 435
CC1(C)CCC(CC(O)c2c(C(F)(F)F)sc3cncn23)CC1 (racemic) ... 447
OC(c1c(C2CCC2)sc2cncn12)C1CCCCC1 (racemic) ... 94.2
CCc1sc2cncn2c1C(O)c1ccccc1 (racemic) ... 59.3
OC(c1c(C2CC2)sc2cncn12)[C@H]1C[C@@H]2CC[C@H]1C2 (relative stereo) ... 16.1

[P] O[C@@H](CC1CCCCC1)c1c(C2CCC2)sc2cncn12
[Q] CC[C@H](C)c1sc2cncn2c1C(O)C1CCCCC1 (stereo partly drawn)
[R] CC1CCCCC1CC(O)c1c(C2CC2)sc2cncn12 (stereo not drawn)
(Q) Give the ascending ranking of the items by reported IC50. // list labels; follow requested order
(A) R, P, Q
(R: 45.2 nM, P: 72.3 nM, Q: 172 nM)

----------
- tested.on: Recombinant human TDO comprising amino acids 19-407 (Homo sapiens (Human))
- method.notes: TDO2 enzymatic assay (TDO inhibitory activity)
- Assay type: biochemical
- condition.parameters: 15 nM enzyme, 200 μM L-tryptophan, pH7, 30 min pre-incubation, NFK quantified by LCMS; mean values if measured multiple times; read-out: hTDO activity (IC50 in nM)
endpoint: IC50 (nM)

Take a look at these entries with their results.
OC(c1c(C2CC2)sc2cncn12)C1CCCCC1 (racemic) ... 288
CC(C)c1sc2cncn2c1[C@@H](O)C1CCCCC1 ... 603
CC1CC(C)(C)CC1C(O)c1c(C2CC2)sc2cncn12 (centres unmarked) ... 247
Cc1sc2cncn2c1C(O)C1CC(C)(C)C1 (racemic) ... 190
CC(C)(C)c1sc2cncn2c1C(O)C1CCCCC1 (racemic) ... 2050
O[C@H](c1c(-c2ccccc2)sc2cncn12)C1CCCCC1 [Example 92a] ... 171
OC(CC1CC(F)(F)C1)c1c(C2CC2)sc2cncn12 (racemic) ... 470
CC1(C)CCC(CC(O)c2c(C(F)(F)F)sc3cncn23)C1 (centres unmarked) ... 8490

[a] Cc1sc2cncn2c1C(O)c1cccs1 (racemic)
[b] OC(CC1CCCCC1)c1c(C2CCC2)sc2cncn12 (racemic)
[c] OC(c1ccccc1F)c1c(C2CC2)sc2cncn12 (racemic)
(Q) // sort entries: IC50, high to low # the answer lists labels in the order requested
(A) c, a, b
(c: 1290 nM, a: 829 nM, b: 256 nM)

[I] Cc1sc2cncn2c1C(O)C1(C)CCCC1 (racemic)
[II] OC(c1c([C@@H]2C[C@H]2F)sc2cncn12)C1CCCCC1 (relative stereo)
[III] C=Cc1sc2cncn2c1C(O)CC1CCCCC1 (centres unmarked)
[IV] OC(CC1CCCCC1)c1c(-c2ccsc2)sc2cncn12 (racemic)
(Q) Arrange by IC50, high to low. Your task in answering is to list the labels in the requested order.
(A) II, IV, III, I
